Numbers sourced from ChEMBL document CHEMBL3244324.

Assay: Octanol-water partition coefficient, log P of the compound
Assay type: physicochemical
Settings: read-out: logP
Could you please mark Met for values of logP below 3 and Not met for values at or above it?

Illustrative cases are given below, each with its answer.
>>> categorylabel("O=NN(CCCl)C(=O)N[C@H]1CC[C@H](O)CC1")
"Met"
>>> categorylabel("C[C@H]1CC[C@H](NC(=O)N(CCCl)N=O)CC1")
"Not met"

I wonder whether `O=NN(CCCl)C(=O)N[C@H]1CC[C@H](CCl)CC1` has logP below 3. Can you tell?
Not met

Request: `O=NN(CCCl)C(=O)NC1CCCCC1`
Met

Follow-up item: `COC(=O)[C@H]1CC[C@@H](NC(=O)N(CCCl)N=O)CC1`
Met

Can you check `CC(=O)OC[C@H]1CC[C@H](NC(=O)N(CCF)N=O)CC1` next?
Met

###

Test: Octanol-water partition coefficient, log P of the compound
Format: physicochemical
Details: read-out: logP
Could you label it Satisfied if measured logP is 3 or higher, and Not satisfied otherwise?

Worked examples, 6 compounds total:
>>> categorylabel("C[C@@H]1CCC[C@H](NC(=O)N(CCCl)N=O)C1 (relative stereo)")
"Satisfied"
>>> categorylabel("CCCCCC(C)NC(=O)N(CCCl)N=O (stereo unspecified)")
"Satisfied"
>>> categorylabel("O=NN(CCCl)C(=O)N[C@H]1CCCC[C@H]1Cl (relative stereo)")
"Not satisfied"
>>> categorylabel("CC(=O)O[C@H]1CC[C@H](NC(=O)N(CCF)N=O)CC1")
"Not satisfied"
>>> categorylabel("C[C@H]1CC[C@H](NC(=O)N(CCF)N=O)CC1")
"Not satisfied"
>>> categorylabel("CCOC(=O)[C@@H]1CCC[C@H](NC(=O)N(CCCl)N=O)C1 (relative stereo)")
"Satisfied"

Please find the next compound below.
Is logP for `O=NN(CCCl)C(=O)NCCCl` at or above 3?
Not satisfied

###

Assay: Therapeutic index, ratio of LD10 for BDF1 mouse to ED50 for mouse L1210 cells allografted in ip dosed BDF1 mouse
Format: organism-based
Details: in vivo, read-out: TI
measuredMetric: selectivity ratio
The response must contain the number and no unit.

// worked examples, selectivity ratio included
>>> reading("COC(=O)[C@H]1CC[C@@H](NC(=O)N(CCCl)N=O)CC1")
0.28
>>> reading("O=NN(CCCl)C(=O)NC1CCCCC1")
0.77
>>> reading("CC(=O)O[C@H]1CC[C@H](NC(=O)N(CCCl)N=O)CC1")
0.4
>>> reading("O=NN(CCCl)C(=O)N[C@H]1CCCC[C@H]1Cl (relative stereo)")
0.56
>>> reading("C[C@H]1SC[C@@H](NC(=O)N(CCCl)N=O)CS1")
0.53

Field request: selectivity ratio | item: `CC(=O)O[C@H]1CC[C@H](NC(=O)N(CCF)N=O)CC1`
0.5

Next: `CC(=O)OC[C@H]1CC[C@H](NC(=O)N(CCF)N=O)CC1`
0.79

###

System: Mus musculus
Assay: Toxicity in ip dosed BDF1 mouse
Type: organism-based
Details: in vivo
measuredMetric: LD10

Examples with their reported LD10 follow.
>>> reading("O=NN(CCCl)C(=O)N[C@H]1CC[C@H](C(=O)O)CC1")
"30 mg/kg"
>>> reading("CCCCCC(C)NC(=O)N(CCCl)N=O (stereo unspecified)")
"57 mg/kg"
>>> reading("CC(=O)O[C@H]1CC[C@H](NC(=O)N(CCF)N=O)CC1")
"36 mg/kg"
>>> reading("O=NN(CCCl)C(=O)N[C@H]1CC[C@@H](NC(=O)N(CCCl)N=O)CC1")
"84 mg/kg"
>>> reading("O=NN(CCF)C(=O)N[C@H]1CC[C@H](C(=O)O)CC1")
"56 mg/kg"

Give its LD10 value. Item: `O=NN(CCCl)C(=O)NC1CCCCC1`
48 mg/kg

Thanks! And `CC(=O)O[C@H]1CC[C@H](NC(=O)N(CCCl)N=O)CC1` ?
45 mg/kg

###

Assay: Octanol-water partition coefficient, log P of the compound at pH 7.4
Type: physicochemical
# reported logD; entries follow
// return a plain number; no unit text

>>> reading("O=NN(CCCl)C(=O)N[C@H]1CC[C@@H](C(=O)O)CC1")
-1.1
>>> reading("O=NN(CCCl)C(=O)N[C@H]1CC[C@H](CC(=O)O)CC1")
-0.6
>>> reading("O=NN(CCCl)C(=O)NC(C(=O)O)C1CCCCC1 (stereo not drawn)")
0
>>> reading("O=NN(CCCl)C(=O)N[C@H]1CCC[C@@H](C(=O)O)C1 (relative stereo)")
-1.1
>>> reading("O=NN(CCF)C(=O)N[C@H]1CC[C@H](C(=O)O)CC1")
-1.7
>>> reading("O=NN(CCCl)C(=O)N[C@H]1CC[C@H](C(=O)O)CC1")
-1.1

Entry `O=NN(CCCl)C(=O)N[C@H]1CC[C@@H](CC(=O)O)CC1` has what logD?
-0.6

Same read-out for `O=NN(CCF)C(=O)N[C@H]1CC[C@@H](C(=O)O)CC1` ?
-1.7

###

System: Mus musculus
Test: Toxicity in ip dosed BDF1 mouse
Format: organism-based
Details: in vivo
LD10 values by entry
Answer with a number only, understood to be in mg/kg.

Consider the reported LD10 for these compounds:
>>> reading("O=NN(CCCl)C(=O)N[C@H]1CC[C@H](NC(=O)N(CCCl)N=O)CC1")
270
>>> reading("O=NN(CCCl)C(=O)NC(C(=O)O)C1CCCCC1 (stereo unspecified)")
73
>>> reading("C[C@@H]1CCC[C@H](NC(=O)N(CCCl)N=O)C1 (relative stereo)")
120
>>> reading("C[C@H]1SC[C@@H](NC(=O)N(CCCl)N=O)CS1")
31
>>> reading("COC(=O)[C@H]1CC[C@@H](NC(=O)N(CCCl)N=O)CC1")
54

Bench note: what LD10 did `C[C@H]1CC[C@H](NC(=O)N(CCCl)N=O)CC1` show?
42

Next compound: `O=COC[C@H]1CC[C@H](NC(=O)N(CCCl)N=O)CC1`
22

What about this compound? `O=NN(CCCl)C(=O)N[C@H]1CC[C@H](C[C@H]2CC[C@H](NC(=O)N(CCCl)N=O)CC2)CC1`
250

Now consider `C[C@H]1S(=O)(=O)C[C@@H](NC(=O)N(CCCl)N=O)CS1(=O)=O` and answer again.
36

Would you mind doing O=NN(CCCl)C(=O)N[C@H]1CCCC[C@H]1Cl (relative stereo) as well?
96

Here is the next compound: `O=NN(CCCl)C(=O)N[C@H]1CC[C@H](O)CC1`
42

###

In this section, each of the compounds is paired with its reported selectivity ratio.
Assay: Therapeutic index, ratio of LD10 for BDF1 mouse to ED50 for mouse L1210 cells allografted in ip dosed BDF1 mouse
Type: organism-based
Conditions: in vivo, read-out: TI
Give the figure only, with no unit attached.

>>> reading("O=NN(CCCl)C(=O)N[C@H]1CC[C@@H](C(=O)O)CC1")
0.62
>>> reading("C[C@@H]1CCC[C@H](NC(=O)N(CCCl)N=O)C1 (relative stereo)")
0.38
>>> reading("O=NN(CCCl)C(=O)NC(C(=O)O)C1CCCCC1 (stereo unspecified)")
0.63

Data request, read-out selectivity ratio, for C[C@H]1CCC[C@H](NC(=O)N(CCCl)N=O)C1 (relative stereo)
0.48

Please give the result for `O=NN(CCCl)C(=O)N[C@H]1CC[C@@H](CC(=O)O)CC1` too.
0.53

Subsequent entry: `O=NN(CCCl)C(=O)N[C@H]1CC[C@H](NC(=O)N(CCCl)N=O)CC1`
0.26

###

Assay: Octanol-water partition coefficient, log P of the compound
Format: physicochemical
Details: read-out: logP
measuredMetric: logP
No unit in the answer, please; the number alone is enough.

Worked cases, logP given:
>>> reading("O=NN(CCCl)C(=O)N[C@H]1CC[C@H](NC(=O)N(CCCl)N=O)CC1")
2.7
>>> reading("CO[C@H]1CC[C@H](NC(=O)N(CCCl)N=O)CC1")
2.4
>>> reading("O=NN(CCCl)C(=O)N[C@H]1CC[C@H](C[C@H]2CC[C@H](NC(=O)N(CCCl)N=O)CC2)CC1")
3.1
>>> reading("O=NN(CCCl)C(=O)N[C@H]1CC[C@@H](O)CC1")
1.1
>>> reading("C[C@H]1S(=O)(=O)C[C@H](NC(=O)N(CCCl)N=O)CS1(=O)=O")
-0.4

For the next question, use this molecule.
Name the recorded logP for `C[C@H]1SC[C@@H](NC(=O)N(CCCl)N=O)CS1` .
2.6

###

Test system: Mus musculus
Assay: Toxicity in ip dosed BDF1 mouse
Type: organism-based
Details: in vivo
measuredMetric: LD10 (mg/kg)
Write the answer as a number in mg/kg, unit excluded.

Worked cases, answers included:
>>> reading("O=NN(CCCl)C(=O)NCCCl [CARMUSTINE]")
41
>>> reading("O=NN(CCCl)C(=O)N[C@H]1CC[C@@H](C(=O)O)CC1")
26
>>> reading("C[C@H]1CC[C@H](NC(=O)N(CCF)N=O)CC1")
44

Please give the measured LD10 for this compound: O=NN(CCCl)C(=O)N[C@H]1CCC[C@@H](C(=O)O)C1 (relative stereo)
34

Cool, now `CC(=O)OC[C@H]1CC[C@H](NC(=O)N(CCCl)N=O)CC1`
28

Same question for `O=NN(CCCl)C(=O)N[C@H]1CC[C@H](CC(=O)O)CC1` please.
40
